Values compiled from PubChem BioAssay AID686979.

- MEASUREMENT DESCRIPTION: qHTS for Inhibitors of human tyrosyl-DNA phosphodiesterase 1 (TDP1): qHTS in cells in presence of CPT; also: nearly all actives have a fitted effect of over 55% in size
- CONDITION DESCRIPTION: chicken DT40 Tdp1-/-;hTDP1 cells + 20 nM CPT, ATP luminescence, 48 h; series mostly up to 46.2 µM
Out of some 420,000 compounds screened, about 50,000 (12%) were called active. Roughly 26% stayed inconclusive and do not appear here. Calls follow the shape of the dose curve; as a rule, active = well fitted inhibition curve with a large enough effect; inconclusive = small, poorly fitted or top-dose-only effect; inactive = flat fitted curve, though single readings scatter. What follows is part of a selection rich in actives, with near analogues and random picks from the rest.
Respond only with the outcome that fits, drawn from active, inactive

Cc1ccc(C)c(N2CCN(C(=O)Cn3ncn4cccc4c3=O)CC2)c1	inactive
C=C1C(=C/C=C2\CCC[C@]3(C)[C@@H]([C@H](C)CCCC(C)(C)O)CC[C@@H]23)C[C@@H](O)C[C@@H]1O	active
N/C(Cc1ccc([N+](=O)[O-])cc1)=N\OC(=O)C1CCCCC1	inactive

Next up:
stdin: Outcome logged for O=C(COC(=O)c1c(Cl)cccc1Cl)Nc1cccc(S(=O)(=O)NC2=NCCCCC2)c1 in this assay:
stdout: inactive
